tested.system: Neuropeptide S receptor (Homo sapiens) (UniProt Q6W5P4)
Sequence (Q6W5P4 whole entry, looked up): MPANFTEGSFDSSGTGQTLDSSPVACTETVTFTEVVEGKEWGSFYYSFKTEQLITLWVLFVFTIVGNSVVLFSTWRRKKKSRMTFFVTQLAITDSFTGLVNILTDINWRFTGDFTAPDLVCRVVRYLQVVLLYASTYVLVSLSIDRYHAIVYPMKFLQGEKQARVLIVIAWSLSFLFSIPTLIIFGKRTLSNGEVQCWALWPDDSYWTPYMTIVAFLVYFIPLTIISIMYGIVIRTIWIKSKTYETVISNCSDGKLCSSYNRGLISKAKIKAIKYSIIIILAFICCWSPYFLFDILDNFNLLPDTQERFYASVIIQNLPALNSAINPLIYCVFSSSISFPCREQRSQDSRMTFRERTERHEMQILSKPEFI
assay.explanation: Confirmation Concentration-Response Assay for Antagonists of the Neuropeptide S Receptor: Robust Characterization of Calcium Signal Transduction
test.context: CHO-NPSR cells, NPS-induced calcium fluorescence (FDSS)
From the text: NIH Chemical Genomics Center [NCGC] NIH Molecular Libraries Probe Production centers Network [MLPCN] MLPCN Grant: X01-DA026210-01 Assay Submitter (PI): Heilig, Markus Alexander NCGC Assay Overview: Neuropeptide S receptor (NPSR), previously known as GPR154, is a recently de-orphanized G protein coupled receptor. […] This change in intracellular calcium can be detected using a calcium indicator dye on a calcium imaging plate reader system (FDSS). […]
Records with an inconclusive call do not appear. The source made the active and inactive calls. Calls come from the whole dose curve; as a rule, active = well fitted inhibition curve with a large enough effect; inconclusive = small, poorly fitted or top-dose-only effect, or another doubt; inactive = no such curve, though single readings can be large or run the other way.
observable: Potency

Looking up `Cc1c(P(=S)(c2ccccc2)c2ccccc2)[n+]2ccccc2n1CCCc1ccccc1` , I found its Potency recorded as 2 nM (active)

Consider `Cc1c(P(=S)(c2ccccc2)c2ccccc2)[n+]2ccccc2n1CCCCc1ccccc1` . Its measured Potency is 1.1 nM (active)

For `Cc1c(P(=S)(c2ccccc2)c2ccccc2)[n+]2ccccc2n1CCc1ccccc1` the compound record lists Potency as 71.2 nM (active)

Data point: `S=P(c1ccccc1)(c1ccccc1)c1cnc2ccccn12` ; Potency = 4000 nM (active)

So, `Cc1c(P(=S)(c2ccccc2)c2ccccc2)[n+]2ccccc2n1CCCCCc1ccccc1` ? Its Potency was 12.7 nM (active)

get_value(item= `Cc1c(P(=S)(c2ccccc2)c2ccccc2)[n+]2ccccc2n1C/C=C/c1ccccc1` , readout=Potency) returns 0.938 nM (active)

The recorded Potency for `Cc1c(P(=S)(c2ccccc2)c2ccccc2)[n+]2ccccc2n1Cc1ccccc1` is 31.8 nM (active)
